Biological target: T1, EphA2 extracellular domain fused to the Fc portion of an antibody (EphA2 Fc)
T1 construct: extracellular domain; Immobilized in the ELISAs
T1 sequence (P29317 whole entry, the tested form may be a part): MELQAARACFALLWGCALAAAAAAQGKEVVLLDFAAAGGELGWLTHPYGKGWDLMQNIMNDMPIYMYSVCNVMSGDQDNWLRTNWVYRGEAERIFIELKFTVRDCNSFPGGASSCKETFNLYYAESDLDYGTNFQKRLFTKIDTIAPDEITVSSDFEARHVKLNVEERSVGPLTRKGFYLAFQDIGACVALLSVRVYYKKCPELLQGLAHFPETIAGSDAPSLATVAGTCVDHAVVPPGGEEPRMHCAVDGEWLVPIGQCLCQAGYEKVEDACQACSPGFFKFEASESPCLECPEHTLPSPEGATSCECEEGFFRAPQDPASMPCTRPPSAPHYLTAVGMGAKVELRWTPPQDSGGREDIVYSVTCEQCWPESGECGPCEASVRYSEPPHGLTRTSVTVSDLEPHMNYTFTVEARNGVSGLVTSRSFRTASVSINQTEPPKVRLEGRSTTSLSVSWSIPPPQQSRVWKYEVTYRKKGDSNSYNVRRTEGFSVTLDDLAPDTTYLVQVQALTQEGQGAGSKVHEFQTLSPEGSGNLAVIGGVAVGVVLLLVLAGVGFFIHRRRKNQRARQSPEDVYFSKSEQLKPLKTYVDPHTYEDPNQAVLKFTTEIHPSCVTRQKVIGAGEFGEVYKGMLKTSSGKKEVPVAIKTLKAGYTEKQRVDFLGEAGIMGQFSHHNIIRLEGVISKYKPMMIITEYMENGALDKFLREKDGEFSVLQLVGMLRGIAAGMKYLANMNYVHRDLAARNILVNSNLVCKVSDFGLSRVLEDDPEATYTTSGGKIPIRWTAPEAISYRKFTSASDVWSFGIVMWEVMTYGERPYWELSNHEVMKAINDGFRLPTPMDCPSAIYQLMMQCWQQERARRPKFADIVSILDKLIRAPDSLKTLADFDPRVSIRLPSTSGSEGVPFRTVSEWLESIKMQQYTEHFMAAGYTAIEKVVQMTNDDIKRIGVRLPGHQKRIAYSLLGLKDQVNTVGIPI
Experiment: competition ELISA: inhibition of ephrin-A5 AP binding to immobilized EphA2 Fc; average ± SE (number of experiments)
pIC50: −log10 of the molar value. Non-standard residues stand in square brackets, D forms with d. No end group written: not given here. *: point of attachment. Biotin = O=C1N[C@H]2[C@H](CS[C@H]2CCCCC(=O)*)N1; βAla = NCCC(=O)O
Respond with rule met for pIC50 values of 6 and above, rule not met for values below.

BINDER	LABEL
[βAla]WLAYPDSVPY-NH2 (also called bA-WLA-Yam; BA-WLA-Yam) [βA-WLA-Yam]	rule met
[βAla]WLAYPDSVPYRPK (also called BA-WLA-YRPK) [βA-WLA-YRPK]	rule met
[βAla]WLAYPDSVPYRPK-NH2 (also called BA-WLA-YRPKam) [βA-WLA-YRPKam]	rule met
[βAla]WLAYPDSVPYSK(Biotin) (also called bA-WLA-YSK-bio; BA-WLA-YSK-bio) [βA-WLA-YSK-bio]	rule met
YSAYPDSVPMMSGSGSK [YSA-GSGSK]	rule not met
